For each record, write down the corresponding Emax.
study.target: human M2 receptor (Homo sapiens, UniProt P08172)
Construct: expressed in transfected cells; host or cells: CHO-DUKX (CHO-DUKX-M2-GIRK)
Sequence (P08172 1-466): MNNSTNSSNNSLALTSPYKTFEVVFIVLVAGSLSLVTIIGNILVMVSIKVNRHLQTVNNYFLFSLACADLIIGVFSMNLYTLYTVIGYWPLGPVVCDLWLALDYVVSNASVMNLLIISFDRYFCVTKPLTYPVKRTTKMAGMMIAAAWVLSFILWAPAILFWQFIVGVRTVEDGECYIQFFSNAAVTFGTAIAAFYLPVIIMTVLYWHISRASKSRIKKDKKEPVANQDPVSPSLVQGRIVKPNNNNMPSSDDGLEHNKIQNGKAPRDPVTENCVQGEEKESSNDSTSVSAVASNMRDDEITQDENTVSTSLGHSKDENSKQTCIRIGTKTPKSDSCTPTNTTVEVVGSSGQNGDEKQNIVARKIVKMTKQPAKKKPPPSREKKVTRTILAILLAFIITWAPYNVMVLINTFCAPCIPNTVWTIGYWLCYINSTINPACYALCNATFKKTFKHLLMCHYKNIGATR
measurement.description: Functional M2-GIRK1/4 activation test: allosteric potency (EC50) and efficiency at EC20 acetylcholine
Format: cell-based
test.settings: boosting of the acetylcholine effect at EC20 acetylcholine concentration; CHO-DUKX-M2-GIRK cells
A number alone suffices; assume %.

Task: Tell me the measured Emax of O=C(N[C@@H](C1CC1)C(F)(F)F)c1cn(-c2c(F)cc(F)cc2F)c2nc(N3CC4(COC4)C3)c(F)cc2c1=O [Example 83] , please.
Result: 94

Task: Tell me the measured Emax of CC(C)(C)NC(=O)c1cn(-c2c(F)cc(F)cc2Cl)c2nc(N3C[C@@H](O)[C@H](O)C3)c(F)cc2c1=O [Example 74] , please.
Result: 95

Task: Tell me the measured Emax of CC(C)(NC(=O)c1cn(-c2c(F)cc(F)cc2F)c2nc(N3CCOCC3)c(F)cc2c1=O)C(F)F [Example 150] , please.
Result: 93

Task: Tell me the measured Emax of CC(C)(NC(=O)c1cn(-c2c(F)cc(F)cc2F)c2nc(N3CCOCC3)c(F)cc2c1=O)C(F)(F)F [Example 149] , please.
Result: 92
